Attribution: ChEMBL document CHEMBL3988442

- system: Shiga toxin 2 (Escherichia coli O157:H7) (UniProt P09385+P09386)
- method-notes: E. coli 0.157:H7 Shiga Toxin SOP - stx2 screening assay
- Type: functional
- Parameters: scale not given: direction of the effect not stated beside the values
- measurement-parameters: 30 µM
property-name: Percent Effect (%)
Return type: number; implicit unit %.

Cc1nn(C)c(N(C)C)c1CNCc1cccc(OCCN(C)C)c1    27.4
CNC(=O)[C@@H]1C[C@H]2CN(C(=O)c3ccco3)C[C@H]2N1C    -6.39
O=C(C1=CCCC1)N1CCO[C@H]2[C@@H](OCC3CC3)CC[C@@H]21    -28.7
CC1CN(C)c2ccccc2CN1C(=O)c1ccc[nH]1 (stereo not given)    -9.14

Below: the item to evaluate.
Query string: Request body: readout Percent Effect, system Shiga toxin 2 (Escherichia coli O157:H7) (UniProt P09385+P09386), query CCCN1CCN(C(=O)c2cnccn2)[C@H]2CS(=O)(=O)C[C@H]21 . Return the value.
Result string: -11.3
